Tested on: IGROV1 ovarian
TEST: NCI-60 one-dose screen, 48 h (100 = growth as untreated, 0 = no growth, -100 = all killed)
TEST_SETTINGS: 10 µM unless noted
This is part of a sample that, as a whole, favours compounds with a hit. Of some 83,000 tested, about 20% had one in any assay.
Grouping key: growth. Bins: I (below 20%), II (20% to below 60%), III (60% or more)

Example cases with answers are listed next.
{"columns": ["MOLECULE", "EXPERIMENTAL_TARGET", "LABEL_VALUE"],
 "data": [
  ["COc1ccc(/C=C\\c2cc(OC)c(OC)c(OC)c2)cc1OCC(=O)Nc1nc2ccc(C(F)(F)F)cc2s1", "IGROV1 ovarian", "I"],
  ["CC(=O)OC1CCC2(C)C(CCC3C2CC(=O)C2(C)C3CC(Sc3ccc(N(CCCl)CCCl)cc3)C2C(C)=O)C1 (stereo not drawn)", "IGROV1 ovarian", "III"]
]}

Form field 'band' for Fc1cccc(NCOOC2(OOCNc3cccc(F)c3)CCCCC2)c1
II

Form field 'band' for C[Se]C(=O)c1ccccc1OC(C)=O
II

Form field 'band' for O=P1(NCCCl)OCCCN1CCCl (stereo not drawn)
III

Form field 'band' for O=C(O)C(O)C(O)C1[O][Sb]([c]2ccc([N+](=O)[O-])cc2)[O]C1CO (stereo not drawn)
III

Form field 'band' for O=NNc1ccccn1
III

Form field 'band' for COC(=O)[C@@H](C)C[C@H](Cc1ccccc1)NC(=O)c1csc([C@@H](C[C@H](C(C)C)N(C)C(=O)C2(NC(=O)[C@H]3CCCCN3C)CC2)OC(C)=O)n1
II

Form field 'band' for C[C@@H]1CCC2[C@@H](C)[C@H](OC(=O)CCC(=O)NCCNC(=O)Cc3cc(=O)oc4cc(N(C)C)ccc34)O[C@@H]3O[C@]4(C)CC[C@@H]1C23OO4 (stereo partly drawn)
II

Form field 'band' for COc1ccc(C/C(C)=C(\c2ccc(OCCN3CCOCC3)cc2)c2ccc(OC(=O)Cc3ccccc3)cc2)cc1
I

Form field 'band' for O=c1[nH]cc(N(CCCl)CCCl)c(=O)[nH]1
II

---

Quick reference: growth of the listed items.
System: 786-0 renal
TEST: NCI-60 one-dose screen, 48 h (100 = growth as untreated, 0 = no growth, -100 = all killed)
TEST_SETTINGS: 10 µM unless noted
The panel holds about 83,000 compounds, 20% with a hit somewhere; the sample as a whole holds those more often.
All answers are understood in %, so give the number only.

# count of solved cases: 2
{"columns": ["LINE_NOTATION", "EXPERIMENTAL_TARGET", "growth (%)"],
 "data": [
  ["C[C@]12CCc3sc(NCCc4ccccc4)nc3C1=CC[C@@H]1[C@@H]2CC[C@]2(C)C(=O)CC[C@@H]12", "786-0 renal", 4.36],
  ["COC(=O)[C@@H](C)C[C@H](Cc1ccccc1)NC(=O)c1csc([C@@H](C[C@H](C(C)C)N(C)C(=O)[C@H](C)NC(=O)[C@H]2CCCN2C)OC(C)=O)n1", "786-0 renal", 45]
]}

Now look at this entry.
Respond only with growth recorded for CC[C@H](C)[C@H](NC(=O)NC(C)(C)C)C(=O)N(C)[C@H](C[C@@H](OC(C)=O)c1nc(C(=O)N[C@@H](Cc2ccccc2)C[C@H](C)C(=O)OC)cs1)C(C)C
-7.51
